Where do the numbers come from? From patent US8207216B2.

Biological target: c-src (Homo sapiens)
Sequence (P12931 whole entry, species assumed): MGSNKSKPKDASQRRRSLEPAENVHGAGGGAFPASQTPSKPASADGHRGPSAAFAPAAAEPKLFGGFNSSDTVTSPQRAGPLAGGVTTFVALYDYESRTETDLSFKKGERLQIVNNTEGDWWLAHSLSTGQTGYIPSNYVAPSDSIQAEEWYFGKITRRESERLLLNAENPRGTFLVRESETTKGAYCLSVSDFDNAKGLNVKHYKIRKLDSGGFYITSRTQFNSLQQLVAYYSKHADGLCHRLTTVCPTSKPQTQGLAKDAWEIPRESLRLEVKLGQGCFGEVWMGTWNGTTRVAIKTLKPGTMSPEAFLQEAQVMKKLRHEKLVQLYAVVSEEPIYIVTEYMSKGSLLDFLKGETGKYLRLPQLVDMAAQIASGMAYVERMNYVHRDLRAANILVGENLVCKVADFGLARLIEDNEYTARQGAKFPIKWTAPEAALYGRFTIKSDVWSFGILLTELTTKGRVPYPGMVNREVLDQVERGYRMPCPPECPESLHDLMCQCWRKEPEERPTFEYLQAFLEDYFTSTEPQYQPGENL
Assay: Kinase panel (Novartis)
Assay type: biochemical
Reported endpoint: IC50 (µM)
Just the number in µM, nothing appended.

For Cn1cc(C2=C(c3coc4ccccc34)C(=O)NC2=O)c2ccc(O)cc21 , what is its reported IC50?
4.5

* * *

Target: recombinant human His6-GSK-3β (Homo sapiens, UniProt P49841)
Construct: His6; purchased EMD Biosciences
Sequence (P49841 whole entry): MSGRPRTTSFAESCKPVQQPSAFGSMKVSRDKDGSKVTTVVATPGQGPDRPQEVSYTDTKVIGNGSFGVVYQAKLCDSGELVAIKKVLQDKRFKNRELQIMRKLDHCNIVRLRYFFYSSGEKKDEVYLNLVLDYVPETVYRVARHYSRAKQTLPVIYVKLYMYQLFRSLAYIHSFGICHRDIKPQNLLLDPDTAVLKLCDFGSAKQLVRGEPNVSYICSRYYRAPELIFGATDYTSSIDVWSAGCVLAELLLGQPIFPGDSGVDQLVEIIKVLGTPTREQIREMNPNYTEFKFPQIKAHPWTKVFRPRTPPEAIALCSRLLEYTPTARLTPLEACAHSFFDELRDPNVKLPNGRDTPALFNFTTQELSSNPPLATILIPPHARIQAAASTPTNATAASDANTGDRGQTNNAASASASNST
Assay: GSK-3β kinase assay, [γ32P] transfer to primed glycogen synthase peptide;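 also: phosphate incorporation quantified by liquid scintillation counting of the filters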
Format: biochemical
Conditions: 10 μM ATP; 10 μM pGSM peptide; 30 minutes at 30° C.; read-out: IC50 (nM), GSK-3β inhibition
Reported endpoint: IC50 (nM)

Known IC50 results, listed for orientation:
For CCOC(=O)CCc1cccc2c(C3=C(c4coc5ccccc45)C(=O)NC3=O)cn(C)c12 , what is its reported IC50?
10.2

Next molecule up: Cn1cc(C2=C(c3coc4cc(CO)ccc34)C(=O)NC2=O)c2cc(F)c(Cl)cc21
0.95

P = CN1C(=O)C(c2coc3cc(CO)ccc23)=C(c2cn(C)c3ccc(F)cc23)C1=O
Q = Cn1cc(C2=C(c3coc4ccccc34)C(=O)NC2=O)c2cc(C3CC3)ccc21
Pick one: P or Q . Which has the bigger IC50 number? Choose, then provide that item's label.
Q
(Q: 235 nM, P: 0.35 nM)
